Source listed as patent US11667652B2.

Target: MCL1/Bim (Homo sapiens (Human))
Sequence (Q07820 171-327): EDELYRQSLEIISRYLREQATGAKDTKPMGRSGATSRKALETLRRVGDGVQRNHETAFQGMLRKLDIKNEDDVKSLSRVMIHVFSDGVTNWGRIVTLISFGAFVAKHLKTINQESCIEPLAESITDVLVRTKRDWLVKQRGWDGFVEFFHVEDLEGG
Assay: MCL1/Bim Binding AlphaLISA Assay
Details: recombinant human 6xHis-MCL1 (171-327), biotinylated Bim peptide (51-76)
pIC50: −log10 of the molar value.
endpoint_name: pIC50

Here's what some known entries look like.
compound	target	pIC50
CO[C@H]1/C=C/C[C@H](C)C[S@@](=O)(NC(=O)c2cc3n(c2)CCOC3)=NC(=O)c2ccc3c(n2)N(C[C@@H]2CC[C@H]21)C[C@@]1(CCCc2cc(Cl)ccc21)CO3 [Example 186]	MCL1/Bim (Homo sapiens (Human))	10.15
COc1nn(C)cc1C(=O)N[S@@]1(=O)=NC(=O)c2ccc3c(c2)N(C[C@@H]2CC[C@H]2[C@@](O)(CC(=O)N2CCOCC2)/C=C/C[C@H](C)C1)C[C@@]1(CCCc2cc(Cl)ccc21)CO3 [Example 98]	MCL1/Bim (Homo sapiens (Human))	10.51

P = COc1nn(C)cc1C(=O)N[S@@]1(=O)=NC(=O)c2ccc3c(c2)N(C[C@@H]2CC[C@H]2[C@@H](OC)C#CC[C@H](C)C1)C[C@@]1(CCCc2cc(Cl)ccc21)CO3 [Example 37]
Q = CO[C@H]1/C=C/CCC[S@@](=O)(NC(=O)NC2CC2)=NC(=O)c2ccc3c(c2)N(C[C@@H]2CC[C@H]21)C[C@]1(CO3)C[C@@H]2C[C@@H]2c2cc(Cl)ccc21 [Example 175]
R = C=CCO[C@H]1/C=C/C[C@H](C)C[S@@](=O)(NC(=O)c2cn(C)nc2OC)=NC(=O)c2ccc3c(c2)N(C[C@@H]2CC[C@H]21)C[C@@]1(CCCc2cc(Cl)ccc21)CO3 [Example 54]
Query: Sort the 3 compounds by pIC50; largest first, smallest last. // rank by listing labels in the order requested
Result: P, R, Q
